System: U-251
method: NCI tumour cell line growth inhibition, 48 h
Activity calls are given as the source filed them. No stated cut-off is given here; in the data, active = GI50 up to about 1.1 µM and inactive = higher.
Reported GI50 values follow for various molecules
experimental readout: GI50

molecule | experimental readout | measured
O=C(/C=C/c1cccc2ccccc12)c1ccccc1Cl | GI50 | 11.6 µM (inactive)
O=C1CSc2nc3ccccc3n2/C=N\N1 | GI50 | > 100 µM (inactive)
CCCCCC(=O)CCCCCCCC(O)CC(=O)OCC (stereo unspecified) | GI50 | 64.3 µM (inactive)
CC(=O)CC(OC(C)=O)C1=CCC2C(CC1C)OC(=O)C2C (stereo unspecified) | GI50 | > 100 µM (inactive)
O=C1CCC(=O)C1=NNc1cc(Cl)cc(Cl)c1 | GI50 | 69.2 µM (inactive)
COC(=O)C(Cc1ccccc1)NP(=O)(O)OCC1OC(n2cc(I)c(=O)[nH]c2=O)CC1O (stereo unspecified) | GI50 | > 100 µM (inactive)
COc1ccc(OC)c([N+](=O)[O-])c1-c1nc2sc(C)cn2c1/C=N/N=C(N)N | GI50 | 31.6 µM (inactive)
O=P(O)(O)C1CCCC(P(=O)(O)O)N1 (stereo unspecified) | GI50 | > 100 µM (inactive)
CN1c2ccccc2N(C(=O)c2ccccc2)C(CC(=O)O)c2cccn21 (stereo unspecified) | GI50 | > 100 µM (inactive)
CCN(CC)CCCn1c(=O)c2ccccc2n2c3c(=O)n(C)c(=O)n(C)c3nc12 | GI50 | 3.03 µM (inactive)
CC[C@]1(Cc2ccc(OC)c(OC)c2)C=[N+]([O-])O[C@H](OC2CCCCC2c2ccccc2)[C@@H]1OC(C)=O (stereo partly specified) | GI50 | 46.6 µM (inactive)

====

Test system: MCF7
method: NCI tumour cell line growth inhibition, 48 h
Calls of active or inactive are those of the source. Cut-off read from the data, not from the text of the source: active = GI50 up to about 1.1 µM and inactive = higher.
Outcome codes: active, inactive

molecule | target desc | class assignment
NCCCCNCCCN1CCOC1=O | MCF7 | inactive
COc1ccc(NC(=O)CC(=O)n2nc(C)c(/N=N/c3cccc(C)c3)c2C)cc1 | MCF7 | inactive
O=Cc1cc2c(o1)C(=O)c1ccccc1C2=O | MCF7 | active
Cc1cc2[nH]c(=NS(=O)(=O)c3cc(C)c(Cl)cc3S)[nH]c2cc1C | MCF7 | inactive
CC(=O)OCC1OC(OCCCCCCO)C(OC(C)=O)C(OC(C)=O)C1OC(C)=O (stereo unspecified) | MCF7 | inactive
C=C(C)[C@@H]1CCC2=C[C@H](CC(C)=CC3=CC(C)=C(O3)[C@@H]1OC)OC2=O | MCF7 | inactive
N#Cc1c2c(c(N3CCOCC3)n3c1nc1ccccc13)CCCC2 | MCF7 | inactive
Nc1cccnc1NCC1(CO)CCCC1 | MCF7 | inactive
CCOC(=O)c1ccc(N(CCOS(=O)(=O)c2ccc(C)cc2)CCOS(=O)(=O)c2ccc(C)cc2)cc1 | MCF7 | inactive
N=C(N)C(/N=N\c1ccccc1)C(=N)N (stereo unspecified) | MCF7 | inactive
CCC(=O)Nc1ccc(NCC(=O)Nc2ccc(Cl)cc2)cc1 | MCF7 | inactive

====

Test system: HCT-116
method: NCI tumour cell line growth inhibition, 48 h
Active and inactive are the calls of the source. Rule as the data show it: active = GI50 up to about 1.1 µM and inactive = higher.

molecule | GI50
CC(OC(C)(C)C)[C@H](NC(=O)OCC(Cl)(Cl)Cl)C(=O)O (stereo partly specified) | > 100 µM (inactive)
O=C(CCc1nnc(S)[nH]1)Nc1ccc(Cl)c(Cl)c1 | 47 µM (inactive)
O=C1ON(Cc2ccccc2)C(c2ccccc2)N1c1ccccc1 (stereo unspecified) | > 100 µM (inactive)
Cc1ccccc1NC(=O)C(=O)Cc1cnc2ccccc2n1 | > 100 µM (inactive)
O=CC(O)C(O)C1OC(=O)c2cc(O)c(O)c(O)c2C2=C(O)C(O)=C3OC(=O)c4c(c(O)c(O)c5c4C3C2C(=O)O5)-c2c(cc(O)c(O)c2O)C(=O)OCC1O (stereo unspecified) | 15.4 µM (inactive)
Cc1cc(N(CCC#N)CCC#N)ccc1C(/N=N/c1ccc(C(=O)O)cc1)=N\NC(=O)c1ccccc1 | 35 µM (inactive)
CN(C)c1ccc(/C=N/NC(=O)c2cnc3ccccc3c2)cc1 | > 100 µM (inactive)
O=P(O)(O)C1CCCC(P(=O)(O)O)N1 (stereo unspecified) | > 100 µM (inactive)
N#Cc1nc(CN2C(=O)c3ccccc3C2=O)oc1N | > 100 µM (inactive)
CC(NS(C)(=O)=O)c1ccccc1 (stereo unspecified) | > 100 µM (inactive)
O=c1[nH]n(Cc2ccccc2Cl)c2ccc([N+](=O)[O-])cc12 | 41.1 µM (inactive)
COc1cc2c(oc(=O)c3c4oc([Si](C)(C)C)cc4cc(OC)c23)c2cccc(O)c12 | > 100 µM (inactive)
COc1cc2c(cc1C)NC(=O)/C2=C/c1c(Cl)[nH]c2ccccc12 | 4.89 µM (inactive)
C[C@@H](NC(=O)c1ccc(CNC(=O)/C=C/c2cccc(Oc3ccccc3)c2)cc1)c1ccccc1 | > 69.3 µM (inactive)
Cn1c2c(c3ccccc31)CCN(CCN1CCN(c3ccccc3)CC1)C2=O | 58.1 µM (inactive)
CCCCCC(=O)CCCCCCCC(O)CC(=O)OCC (stereo unspecified) | > 100 µM (inactive)
CC(Cn1c(=O)oc2ccccc21)N(C)C (stereo unspecified) | > 100 µM (inactive)
CC(C)(C)[Si](C)(C)OCC1OC(n2cnc3c(N)ncnc32)C(O[Si](C)(C)C(C)(C)C)C1O[Si](C)(C)C(C)(C)C (stereo unspecified) | 6.11 µM (inactive)
O=c1[nH]c(=O)n(C2OC(CO)C(O)C2O)c2ncc(-c3ccc(-c4ccccc4)cc3)nc12 (stereo unspecified) | > 20 µM (inactive)
CCOC(=O)c1ccc(N(CCOS(=O)(=O)c2ccc(C)cc2)CCOS(=O)(=O)c2ccc(C)cc2)cc1 | 27.3 µM (inactive)
CCN(CC)CCn1ncc2c(N)ncnc21 | > 100 µM (inactive)
